assay: Solubility determination of UTS-14 compounds; assay type: physicochemical; details: saline or isotonic, thermodynamic from solid; saline, 37° C.; read-out: solubility in saline at 37° C.
metricName: solubility (mg/mL)
Give bare numbers, in mg/mL.

Please fill in: solubility reported for CSCc1cc(C(=O)O)no1 = 12

* * *

Consider the following molecules; for each one, report its solubility.
experiment: Solubility determination of UTS-14 compounds; format: physicochemical; details: thermodynamic from solid; water, rm temp; read-out: solubility in water

Check out these entries, answers already filled in.
1) CS(=O)(=O)Cc1cc(C(=O)O)no1 [UTS-1403] :: ~9100 µg/mL
2) C[S+]([O-])Cc1cc(C(=O)O)no1 (stereo not drawn) [UTS-1402] :: ~16000 µg/mL

Next, consider the following molecule.
Note to self: solubility recorded for CSCc1cc(C(=O)O)no1 [UTS-1401] was ~9500 µg/mL

* * *

experiment: Solubility determination of UTS-14 compounds; type: physicochemical; conditions: Hank's Balanced Salt Solution (HBSS), saline or isotonic, thermodynamic from solid; read-out: solubility in Hank's Balanced Salt Solution (HBSS)
metricName: solubility

Please fill in: solubility reported for CS(=O)(=O)Cc1cc(C(=O)O)no1 = ~15.8 mg/mL
